Answer each item with its documented GI50.
System: HT-29
method notes: Cytotoxicity against human HT-29 cells after 48 hrs by SRB assay
Format: functional
experimental parameters: HT-29, 48 h
Lab book: enter the figure in µM, no units written.

// GI50 value for COc1c(C)c(OC)c(OC)c2c1C[C@H]1CN(C(=O)OC(C)(C)C)CC(=O)N1[C@H]2COCc1ccccc1 : 8.66

The molecule identified as COc1c(C)c(OC)c(OC)c2c1C[C@H]1CN(C)[C@@H](Cc3ccccc3)C(=O)N1[C@H]2COCc1ccccc1 registered its GI50 at 13

Form: molecule = COc1c(C)c(OC)c(OC)c2c1C[C@H]1CN(Cc3ccccc3)CC(=O)N1[C@H]2COCc1ccccc1 (relative stereo) ; GI50 = 12

Record COc1cc(C[C@H]2NC=C3Cc4c(OC)c(C)c(OC)c(OC)c4[C@H](COC(=O)/C=C/c4ccccc4)N3C2=O)c(OC)c(C)c1OC , field GI50: 11.1

###

System: HT-29
method notes: Cytotoxicity against human HT-29 cells after 48 hrs by SRB assay
Format: functional
experimental parameters: HT-29, 48 h
test readout: GI50 (µM)
Numbers only; they are read as µM.

response.value for COc1c(C)c(OC)c(OC)c2c1C[C@H]1CN(C(=O)OC(C)(C)C)[C@@H](Cc3ccccc3)C(=O)N1[C@H]2COCc1ccccc1 (field: GI50) = 9.13

GET /value?item= COc1c(C)c(OC)c(OC)c2c1C[C@H]1CN(C(=O)OC(C)C)CC(=O)N1[C@H]2COCc1ccccc1 &field=GI50 returns 8.32

Item: COc1c(C)c(OC)c(OC)c2c1C[C@H]1CN(Cc3ccc4ccccc4c3[N+](=O)[O-])CC(=O)N1[C@H]2COCc1ccccc1 (relative stereo) | GI50: 4.06
